target: Neuronal acetylcholine receptor subunit alpha-7 (Homo sapiens, UniProt P36544); test: Partial agonist activity at human alpha7 nAChR expressed in Xenopus laevis oocytes assessed as increase in peak current amplitude at 30 uM at -60 mV holding potential treated for 12 secs followed by compound washout for 181 secs by whole cell two electrode voltage-clamp assay relative to ACh; assay type: cell-based
Sequence (P36544 whole entry): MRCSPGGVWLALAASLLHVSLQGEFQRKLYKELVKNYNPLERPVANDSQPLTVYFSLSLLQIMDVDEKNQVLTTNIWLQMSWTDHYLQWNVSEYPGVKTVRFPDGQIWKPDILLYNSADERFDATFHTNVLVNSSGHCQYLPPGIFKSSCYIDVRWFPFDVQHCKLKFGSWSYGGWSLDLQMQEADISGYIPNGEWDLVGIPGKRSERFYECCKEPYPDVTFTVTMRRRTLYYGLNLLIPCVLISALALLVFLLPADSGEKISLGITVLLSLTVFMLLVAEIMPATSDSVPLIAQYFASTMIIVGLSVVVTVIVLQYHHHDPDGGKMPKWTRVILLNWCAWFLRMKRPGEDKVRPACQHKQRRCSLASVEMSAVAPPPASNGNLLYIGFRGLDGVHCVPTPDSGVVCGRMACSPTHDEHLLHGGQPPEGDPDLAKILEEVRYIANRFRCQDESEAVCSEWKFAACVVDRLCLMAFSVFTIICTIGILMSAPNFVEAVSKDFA
Kindly apply the following: Met if fold change (FC) is less than 0.3, Not met in every other case.

Ask: Decide: fold change (FC) of C[N+]12CCC(CC1)C(Cc1nc(-c3cccc(I)c3)no1)C2 (stereo unspecified) strictly below 0.3?
Reply: Not met

Ask: Decide: fold change (FC) of Brc1cccc(-c2noc(CC3CN4CCC3CC4)n2)c1 (stereo unspecified) strictly below 0.3?
Reply: Not met

Ask: Decide: fold change (FC) of COc1ccc(-c2noc(CC3CN4CCC3CC4)n2)cc1 (stereo unspecified) strictly below 0.3?
Reply: Not met

Ask: Decide: fold change (FC) of C[N+]12CCC(CC1)C(Cc1nc(-c3ccncc3)no1)C2 (stereo unspecified) strictly below 0.3?
Reply: Met

Ask: Decide: fold change (FC) of C[N+]12CCC(CC1)C(Cc1nc(-c3ccco3)no1)C2 (stereo unspecified) strictly below 0.3?
Reply: Met

Ask: Decide: fold change (FC) of C[N+]12CCC(CC1)C(Cc1nc(-c3cccc(C(F)(F)F)c3)no1)C2 (stereo unspecified) strictly below 0.3?
Reply: Met

Ask: Decide: fold change (FC) of Clc1cccc(-c2noc(CC3CN4CCC3CC4)n2)c1 (stereo unspecified) strictly below 0.3?
Reply: Not met

Ask: Decide: fold change (FC) of COc1cccc(-c2noc(CC3C[N+]4(C)CCC3CC4)n2)c1 (stereo unspecified) strictly below 0.3?
Reply: Met

Ask: Decide: fold change (FC) of C[N+]12CCC(CC1)C(Cc1nc(-c3cccnc3)no1)C2 (stereo unspecified) strictly below 0.3?
Reply: Met

Ask: Decide: fold change (FC) of Fc1cccc(-c2noc(CC3CN4CCC3CC4)n2)c1 (stereo unspecified) strictly below 0.3?
Reply: Not met

---

target: Neuronal acetylcholine receptor subunit alpha-7 (Homo sapiens, UniProt P36544); assay: Silent agonist activity at human alpha7 nAChR expressed in Xenopus laevis oocytes assessed as increase in net charge at 30 uM at -60 mV holding potential treated for 12 secs followed by compound washout for 181 secs in presence of type 2 PAM PNU-120596 by whole cell two electrode voltage-clamp assay relative to ACh; assay type: cell-based
Property Label: fold change (FC)
Write the number on its own, no unit after it.

Ask: Form field: fold change (FC) recorded for c1coc(-c2noc(CC3CN4CCC3CC4)n2)c1 (stereo unspecified) with Neuronal acetylcholine receptor subunit alpha-7 (Homo sapiens, UniProt P36544) (enter value)
Reply: 32.3

Ask: Form field: fold change (FC) recorded for Brc1cccc(-c2noc(CC3CN4CCC3CC4)n2)c1 (stereo unspecified) with Neuronal acetylcholine receptor subunit alpha-7 (Homo sapiens, UniProt P36544) (enter value)
Reply: 0.5

Ask: Form field: fold change (FC) recorded for Fc1cccc(-c2noc(CC3CN4CCC3CC4)n2)c1 (stereo unspecified) with Neuronal acetylcholine receptor subunit alpha-7 (Homo sapiens, UniProt P36544) (enter value)
Reply: 0.9

Ask: Form field: fold change (FC) recorded for C[N+]12CCC(CC1)C(Cc1nc(-c3cccc(Cl)c3)no1)C2 (stereo unspecified) with Neuronal acetylcholine receptor subunit alpha-7 (Homo sapiens, UniProt P36544) (enter value)
Reply: 0.7

Ask: Form field: fold change (FC) recorded for Clc1cccc(-c2noc(CC3CN4CCC3CC4)n2)c1 (stereo unspecified) with Neuronal acetylcholine receptor subunit alpha-7 (Homo sapiens, UniProt P36544) (enter value)
Reply: 0.6

Ask: Form field: fold change (FC) recorded for Cc1noc(CC2C[N+]3(C)CCC2CC3)n1 (stereo unspecified) with Neuronal acetylcholine receptor subunit alpha-7 (Homo sapiens, UniProt P36544) (enter value)
Reply: 0.1
